# target of assay: Integrin alpha-5/beta-1 (Homo sapiens, UniProt P05556+P08648)
# Sequence (P05556 21-798 limits assumed): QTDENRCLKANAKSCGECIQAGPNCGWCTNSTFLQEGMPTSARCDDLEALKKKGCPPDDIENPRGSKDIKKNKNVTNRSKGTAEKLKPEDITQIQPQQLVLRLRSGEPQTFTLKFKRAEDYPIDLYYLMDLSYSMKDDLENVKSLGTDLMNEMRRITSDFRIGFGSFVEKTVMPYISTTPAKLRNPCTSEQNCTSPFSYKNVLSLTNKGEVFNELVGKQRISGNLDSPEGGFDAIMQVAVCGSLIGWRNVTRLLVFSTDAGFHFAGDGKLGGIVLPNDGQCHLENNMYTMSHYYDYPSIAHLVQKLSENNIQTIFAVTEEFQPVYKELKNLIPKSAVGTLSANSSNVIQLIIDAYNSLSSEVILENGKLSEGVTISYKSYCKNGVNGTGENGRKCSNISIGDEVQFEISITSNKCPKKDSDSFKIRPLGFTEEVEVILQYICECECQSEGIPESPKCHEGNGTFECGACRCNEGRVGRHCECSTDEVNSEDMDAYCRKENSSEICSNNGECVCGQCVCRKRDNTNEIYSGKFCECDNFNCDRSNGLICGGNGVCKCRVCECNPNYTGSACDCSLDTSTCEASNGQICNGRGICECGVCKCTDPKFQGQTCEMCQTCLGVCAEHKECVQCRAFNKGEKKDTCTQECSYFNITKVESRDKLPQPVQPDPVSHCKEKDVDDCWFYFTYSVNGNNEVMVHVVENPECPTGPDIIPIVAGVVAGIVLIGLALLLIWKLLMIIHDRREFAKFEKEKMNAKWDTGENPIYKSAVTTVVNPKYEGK
# Sequence (P08648 42-894 limits assumed): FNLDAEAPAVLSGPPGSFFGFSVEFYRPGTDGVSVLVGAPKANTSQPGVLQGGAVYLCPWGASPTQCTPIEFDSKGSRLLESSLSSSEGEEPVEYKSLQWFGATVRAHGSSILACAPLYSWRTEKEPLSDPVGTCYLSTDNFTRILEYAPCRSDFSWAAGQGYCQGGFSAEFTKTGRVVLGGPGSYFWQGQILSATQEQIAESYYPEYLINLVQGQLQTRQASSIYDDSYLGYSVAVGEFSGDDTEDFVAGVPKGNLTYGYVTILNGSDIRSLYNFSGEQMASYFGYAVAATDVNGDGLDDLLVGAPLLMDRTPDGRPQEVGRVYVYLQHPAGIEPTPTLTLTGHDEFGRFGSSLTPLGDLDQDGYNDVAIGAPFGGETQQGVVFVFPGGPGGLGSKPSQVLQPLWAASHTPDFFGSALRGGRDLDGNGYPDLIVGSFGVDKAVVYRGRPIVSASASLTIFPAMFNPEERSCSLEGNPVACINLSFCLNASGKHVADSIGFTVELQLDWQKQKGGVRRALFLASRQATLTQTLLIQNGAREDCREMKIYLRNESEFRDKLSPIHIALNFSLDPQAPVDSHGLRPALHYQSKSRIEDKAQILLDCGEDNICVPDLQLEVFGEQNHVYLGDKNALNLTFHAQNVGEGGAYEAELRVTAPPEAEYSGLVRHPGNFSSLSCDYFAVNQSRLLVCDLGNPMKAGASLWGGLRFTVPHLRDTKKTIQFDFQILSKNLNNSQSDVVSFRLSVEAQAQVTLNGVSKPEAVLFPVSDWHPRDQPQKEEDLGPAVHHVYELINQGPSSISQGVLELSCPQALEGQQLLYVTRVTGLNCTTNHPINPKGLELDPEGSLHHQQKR
# Sequence (P08648 895-1049 limits assumed): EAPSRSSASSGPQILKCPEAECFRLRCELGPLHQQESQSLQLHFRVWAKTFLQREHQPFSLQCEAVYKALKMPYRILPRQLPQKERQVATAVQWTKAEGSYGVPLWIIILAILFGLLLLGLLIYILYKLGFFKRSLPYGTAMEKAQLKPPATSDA
# method summary: Inhibition of human HT1080 cell adhesion to fibronectin
# Type: functional, cell-based, HT-1080
recorded endpoint: pIC50
Keep in mind that pIC50 stands for -log10 of concentration in molar terms.

# input compound: CC(=O)OC(=O)c1ccccc1C(=O)c1ccc(F)c([N+](=O)[O-])c1 ; wanted: its pIC50
5.15

* * *

# target of assay: Integrin alpha-5/beta-1 (Homo sapiens, UniProt P05556+P08648)
# method summary: Inhibition of human A431 cell adhesion to fibronectin
# Assay type: functional, cell-based, A-431
recorded endpoint: pIC50
Keep in mind that pIC50 stands for -log10 of concentration in molar terms.

# input compound: CC(=O)OC(=O)c1ccccc1C(=O)c1ccc(F)c([N+](=O)[O-])c1 ; wanted: its pIC50
5.10
